Experiment: Stability of analytes in rat plasma samples (method validation)
Type: in vitro ADME
Conditions: three freeze-thaw cycles at −80°C, low QC nominal concentration, n = 6
Test Readout: Freeze-thaw stability (3 cycles) Mean (%)
// note: answer is a bare numeric in %

Worked examples follow.
# Compound, Freeze-thaw stability (3 cycles) Mean (%)
records = [
    ("CC12CC(O)C3CC1(OC1OC(CO)C(O)C(O)C1O)C3(COC(=O)c1ccccc1)C(=O)O2 (stereo not drawn) [Albiflorin, albiflorin]", 99.77),
    ("C[C@@]12C[C@@]3(O)O[C@@H](O1)[C@]1(COC(=O)c4ccccc4)[C@H]3C[C@@]12O[C@@H]1O[C@H](CO)[C@@H](O)[C@H](O)[C@H]1O [Paeoniflorin, paeoniflorin]", 97.71),
    ("O=C(/C=C/c1ccc(O)cc1)c1ccc(O)cc1O [Isoliquiritigenin, isoliquiritigenin]", 99.28),
    ("CC1(C)[C@@H](O[C@H]2O[C@H](C(=O)O)[C@@H](O)[C@H](O)[C@H]2O[C@@H]2O[C@H](C(=O)O)[C@@H](O)[C@H](O)[C@H]2O)CC[C@]2(C)[C@H]3C(=O)C=C4[C@@H]5C[C@@](C)(C(=O)O)CC[C@]5(C)CC[C@@]4(C)[C@]3(C)CC[C@@H]12 [Glycyrrhizic acid, glycyrrhizic acid]", 98.31),
]

query: Quick one: Freeze-thaw stability (3 cycles) Mean for O=C1C[C@@H](c2ccc(O[C@@H]3O[C@H](CO)[C@@H](O)[C@H](O)[C@H]3O)cc2)Oc2cc(O)ccc21 [Liquiritin, liquiritin] ?
result: 101.75

query: For the compound O=C(/C=C/c1ccc(O[C@@H]2O[C@H](CO)[C@@H](O)[C@H](O)[C@H]2O)cc1)c1ccc(O)cc1O [Isoliquiritin, isoliquiritin] , what Freeze-thaw stability (3 cycles) Mean is on record?
result: 98.98

* * *

Quick list: Vd/F per entry.
Assay: Pharmacokinetic study in rats after oral administration of GLGZG (UPLC-MS/MS of plasma)
Format: in vivo, rat
Settings: rat plasma, male SD rats, oral GLGZG 3.6 g·(kg·day)^−1, n = 6; read-out: Vz/F
Phrase the answer as number then unit, nothing more needed.

query: Would you kindly share the measured Vd/F for `O=C1C[C@@H](c2ccc(O)cc2)Oc2cc(O)ccc21` ?
result: 341 L/kg

query: Form field: reported Vd/F of `O=C(/C=C/c1ccc(O)cc1)c1ccc(O)cc1O`
result: 700 L/kg

query: What measured Vd/F goes with `CC1(C)[C@@H](O[C@H]2O[C@H](C(=O)O)[C@@H](O)[C@H](O)[C@H]2O[C@@H]2O[C@H](C(=O)O)[C@@H](O)[C@H](O)[C@H]2O)CC[C@]2(C)[C@H]3C(=O)C=C4[C@@H]5C[C@@](C)(C(=O)O)CC[C@]5(C)CC[C@@]4(C)[C@]3(C)CC[C@@H]12` ?
result: 3.92 L/kg

query: Tell me the measured Vd/F of `O=C1C[C@@H](c2ccc(O[C@@H]3O[C@H](CO)[C@@H](O)[C@H](O)[C@H]3O)cc2)Oc2cc(O)ccc21` , please.
result: 167 L/kg

query: Any idea what its Vd/F is? The compound is `C[C@@]12C[C@@]3(O)O[C@@H](O1)[C@]1(COC(=O)c4ccccc4)[C@H]3C[C@@]12O[C@@H]1O[C@H](CO)[C@@H](O)[C@H](O)[C@H]1O`
result: 6.31 L/kg

query: For the compound shown here, `O=C(/C=C/c1ccc(O[C@@H]2O[C@H](CO)[C@@H](O)[C@H](O)[C@H]2O)cc1)c1ccc(O)cc1O` , give the reported Vd/F.
result: 297 L/kg

query: Give its Vd/F value. Item: CC12CC(O)C3CC1(OC1OC(CO)C(O)C(O)C1O)C3(COC(=O)c1ccccc1)C(=O)O2 (stereo not shown)
result: 2.67 L/kg
